The following compounds are listed with their measured LD50 values.
# METHOD_DESCRIPTION: In vivo toxicity in mouse after oral administration with 10% aqueous acacia gum
# Type: organism-based

// solved cases for LD50 follow
O=C(CCN1CCN(c2ccccn2)CC1)Nc1ccc(NC(=O)Nc2ccccc2)cc1: > 6700 µmol/kg
NC(=O)Nc1ccc(NC(=O)CCN2CCN(c3ccccn3)CC2)cc1: > 8100 µmol/kg
CCOC(=O)C(=O)Nc1ccc(NC(=O)CCN2CCN(c3ccccn3)CC2)cc1: > 7050 µmol/kg
CSc1ccc(NC(=O)CCN2CCN(c3ccccn3)CC2)cc1: > 8400 µmol/kg

Write down LD50 measured for item CNC(=O)Nc1ccc(NC(=O)CCN2CCN(c3ccccn3)CC2)cc1.Cl.Cl
> 6500 µmol/kg

Please indicate LD50 recorded for C=CCOC(=O)CCN1CCN(c2ccccn2)CC1.Cl.Cl
> 8610 µmol/kg

Consider the compound CC(=O)Nc1ccc(NC(=O)CCN2CCN(c3ccccn3)CC2)cc1.Cl.Cl . State its measured LD50.
> 6810 µmol/kg

Find the measured LD50 of Br.CC(=O)c1ccc(NC(=O)CCN2CCN(c3ccc(Br)cn3)CC2)cc1 and report it.
> 7000 µmol/kg

Consider the compound CC(=O)c1ccccc1NC(=O)CCN1CCN(c2ccccn2)CC1.Cl.Cl and give its recorded LD50.
> 6910 µmol/kg

Answer with the recorded LD50 of NS(=O)(=O)c1ccc(NC(=O)CCN2CCN(c3ccccn3)CC2)cc1 only.
> 7700 µmol/kg
